B1: CDC25B (parent)
chain: KSPIAPCSLDKRVILIFHCEFSSE

# Variants of: B1
# measurement description: protein stability index of a GFP-peptide fusion (GPS, HEK-293T) (PSI 1-6); higher = more stable;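 further: lentivirally expressed fusions sorted by FACS into six bins by GFP to DsRed ratio, PSI derived from sequencing read proportions per bin multiplied by bin number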
# applied conditions: c terminus: a fixed tail appended
# Lookup of reported protein stability index keyed by entry
Answer with the value's number alone.

Known protein stability index results, listed for orientation:
H18P ... 2.44
P3W ... 2.17
D10H ... 2.05
R12F ... 5.41
P6Q ... 4.6

Request: State its protein stability index for this variant: `S2W`
Response: 4.11

Request: For the variant `C7V` , give its reported protein stability index.
Response: 3.75

Request: Check the records and state protein stability index for `S2T`
Response: 3.22

Request: Identify protein stability index associated with the variant `S23W`
Response: 3.34

Request: Let me know recorded protein stability index for `R12Y` , thanks.
Response: 3.38

Request: Identify the reported protein stability index for the following entry. `S2D`
Response: 3.82

Request: Tell me protein stability index reported for `S2I`
Response: 1.68

Request: Recall and state the measured protein stability index for `F17N` .
Response: 2.54

Request: Supply recorded protein stability index for `C19N` here.
Response: 1.32

Request: // fetch protein stability index given entry `V13S`
Response: 3.15

Request: Give the measured protein stability index for `S8H`
Response: 3.03

Request: For the variant `A5F` , give its reported protein stability index.
Response: 2.93

Request: Read the entry `S22D` and write its reported protein stability index.
Response: 3.4

Request: Answer with the recorded protein stability index for the variant listed here: `I16Y`
Response: 2.91

Request: Quickly give me recorded protein stability index for `I16G`
Response: 1.4

Request: Query protein stability index for `A5E`
Response: 2.55

Request: Assign protein stability index to the following record: `P6W`
Response: 3.61

Data origin: the supplement of paper PMC10567573
